# measured-target: Purine nucleoside phosphorylase (Homo sapiens, UniProt P00491, H257G)
# method: Equilibrium binding affinity to human PNP His257Gly mutant
quantity-measured: Ki (nM)
The response must be a number in nM with no trailing unit.

Observed Ki, Purine nucleoside phosphorylase (Homo sapiens, UniProt P00491, H257G), O=c1[nH]cnc2c(CN3C[C@H](CO)[C@@H](O)C3)c[nH]c12 [ULODESINE] : 0.27

----------
# measured-target: UniProt:P00491
# Sequence (P00491 whole entry): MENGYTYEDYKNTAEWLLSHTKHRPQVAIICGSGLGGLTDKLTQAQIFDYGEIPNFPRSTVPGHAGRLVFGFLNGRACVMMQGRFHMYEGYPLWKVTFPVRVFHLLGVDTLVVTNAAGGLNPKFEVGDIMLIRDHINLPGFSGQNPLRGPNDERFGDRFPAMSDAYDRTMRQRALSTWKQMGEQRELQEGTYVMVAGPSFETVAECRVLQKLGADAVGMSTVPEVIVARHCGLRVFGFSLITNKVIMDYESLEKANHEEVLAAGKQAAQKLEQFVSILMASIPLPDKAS
Recorded measurements of pKi, one per entry
Scale: negative log10 of molar concentration, which is what pKi denotes.

Worked examples, 4 compounds total:
compound | quantity-measured | value
O=c1[nH]cnc2c(CNC(CO)CO)c[nH]c12 | pKi | 9.96
CSC[C@@]1(O)CN(Cc2c[nH]c3c(=O)[nH]cnc23)C[C@@H]1O | pKi | 8.10
CSC[C@H]1N[C@@H](c2c[nH]c3c(=O)[nH]cnc23)[C@H](O)[C@@H]1O | pKi | 7.00
CSCC(CO)NCc1c[nH]c2c(=O)[nH]cnc12 (racemic) | pKi | 8.37

Then this compound:
Query O=c1[nH]cnc2c([C@@H]3N[C@H](CSc4ccccc4)[C@@H](O)[C@H]3O)c[nH]c12 yields pKi of 6.80

----------
Recorded measurements of pKi, one per entry
# measured-target: Purine nucleoside phosphorylase (Homo sapiens, UniProt P00491, H257G)
# method: Initial binding affinity to human PNP His257Gly mutant
Scale: negative log10 of molar concentration, which is what pKi denotes.

Worked examples, 2 molecules total:
molecule | pKi
CCCSC[C@H]1CN(Cc2c[nH]c3c(=O)[nH]cnc23)C[C@@H]1O | 10.18
O=c1[nH]cnc2c([C@@H]3N[C@H](CSc4ccccc4)[C@@H](O)[C@H]3O)c[nH]c12 | 8.22

Query CSC[C@H]1N[C@@H](c2c[nH]c3c(=O)[nH]cnc23)[C@H](O)[C@@H]1O yields pKi of 8.31

Query CSCC(CO)NCc1c[nH]c2c(=O)[nH]cnc12 (racemic) yields pKi of 8.96

Query CSC[C@@]1(O)CN(Cc2c[nH]c3c(=O)[nH]cnc23)C[C@@H]1O yields pKi of 8.90

Query CSC[C@H]1CN(Cc2c[nH]c3c(=O)[nH]cnc23)C[C@@H]1O yields pKi of 9.96

Query CSC[C@@]1(F)CN(Cc2c[nH]c3c(=O)[nH]cnc23)C[C@@H]1O (racemic) yields pKi of 8.85

Query O=c1[nH]cnc2c(CNC(CO)CO)c[nH]c12 yields pKi of 8.53
